- Tgt: T1, TIGIT on TIGIT-over expressing NFAT-Luc/Jurkat effector cells (GenScript reporter cell line) (UniProt Q495A1 22-244, limits assumed)
- T1 sequence (looked up): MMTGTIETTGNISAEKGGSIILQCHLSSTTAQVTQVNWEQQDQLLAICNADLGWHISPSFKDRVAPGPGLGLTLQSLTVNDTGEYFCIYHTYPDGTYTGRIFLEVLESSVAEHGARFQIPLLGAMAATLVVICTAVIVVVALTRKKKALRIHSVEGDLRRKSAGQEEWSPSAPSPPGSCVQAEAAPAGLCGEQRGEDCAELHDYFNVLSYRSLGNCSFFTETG
- Measurement Protocol: cell-based or functional assay
Quick reference: EC50 of the listed items.
API: value field is a number in nM; no unit string.

>>> value_observed("huTIGIT-3-1 (antibody, human IgG1, kappa, V domains shown, Humanized IgG; also called 3VH3.M4 + 3VL4.M6) VH: EVQLVESGGGLVQPGGSLRLSCAASGFTFSSYGMSWVRQAPGKGLELVATIKSSGGSTNLADSVKGRFTISRDNSKNTLYLQMNSLRAEDTAVYYCVRGYFDYWGQGTTVTVSS VL: DIQMTQSPSSLSASVGDRVTITCRASQDIKTALAWYQQKPGKSPKLLIYWASTRQSGVPSRFSGSGSGTDFTLTISSLQPEDVATYYCQQYYSTPYTFGGGTKVEIKR")
4.92

# next binder below
[ask] Tell me its EC50 given huTIGIT-6-2 (antibody, human IgG1, kappa, V domains shown, Humanized IgG; also called 6VH6.M5 + 6VL1.M1) VH: QVQLVQSGAEVKKPGASVKVSCKASGYTITENTMHWVRQAPGQRLEWIGGINPNNAGTSYSQKFQGRATLTVDTSASTAYMELSSLRSEDTAVYYCTRSSYYRYDLDYWGQGTTVTVSS VL: DIQMTQSPSSLSASVGDRVTITCQASQDIKTALAWYQQKPGKAPKLLIYSASYRYTGVPSRFSGSGSGTDFTFTISSLQPEDIATYYCHQHYTTPWTFGGGTKLEIKR as the entry.
[reply] 9.03
